# Tested on: MS2 coat protein
# method_notes: apparent KD of MS2 coat protein; designed switch direction (-1 OFF switch, 1 ON switch): -1; higher = weaker reporter binding
# condition_parameters: input ligand: none
Measured apparent KD of MS2 coat protein accompanies every entry in the list below.
Provide only the numeric value, understood in nM.

>>> result_number("AAAUAGAAAGGAUAUACAGGCAUCCUUACCAGAGCGAGCUCACAUGAGGAUCACCCAUGUAGAAGGUUCAUAGC [EX2 C.17] (Eterna round: R97, puzzle: Exclusion 2)")
31.8
>>> result_number("CCGCUGUGAGGAUAUUAGUAGUAGUCAGAAUAGACUAUUACUGAGAAGGCACAUGAGGAUCACCCAUGUAGCGG [Eli x4 4.25] (Eterna round: R97, puzzle: Exclusion 4)")
28.9
>>> result_number("AGAGUGCUGCGAGGAUAUACAUGAGGAUCACCCAUGUAAAAGUGUGAGGCUUUGCCUCACACUAUGUAGAAGGCGCAGUACUCA [Mat - Exclusion NG 2 - Mod of JL - D10] (Eterna round: R96, puzzle: Exclusion NG 2)")
13.4

query: For the sequence shown here, AUAACAUGCUGGUGAUCAUACAUGAGGAUCACCCAUGUAACAAGCUUUUUGCUCGUCUUAUAAUUUAAGAUCACCAG [Stov1/7-A2] (Eterna round: R97, puzzle: Sensor, turn-off variant 1) , give the reported apparent KD of MS2 coat protein.
result: 18.1

query: For the sequence shown here, ACAUAUGACUAGGAUAUCACUAGCGAUAGCUAGUGAGAAGGAGUCACAUGAGGAUCACCCAUGUGCUCCAAUAA [Mod5 Ex6/6-A4 by Brourd] (Eterna round: R97, puzzle: Exclusion 6) , give the reported apparent KD of MS2 coat protein.
result: 15.1

query: For the sequence shown here, CCUCAUAGUCAGGAUAUCAGCGCGUUCGGCAAAUGAGAAGGGACCACAUGAGGAUCACCCAUGUAAAACCAAAA [Beencema] (Eterna round: R97, puzzle: Exclusion 6) , give the reported apparent KD of MS2 coat protein.
result: 36

query: For the sequence shown here, UGUGUGAGACAGGAUAUGCCGGAUGUAUUACUGGUAGAAGGGUCUACAUGAGGAUCACCCAUGUGGCCGGCCGG [Ex6 #83] (Eterna round: R97, puzzle: Exclusion 6) , give the reported apparent KD of MS2 coat protein.
result: 21.1

query: For the sequence shown here, GAACCAAAAGGAUAUGGCGUAACAAACAUGAGGAUCACCCAUGUCCUCGAUGAAUAUCCGCCAGAAGGUUUGUCUC [Eternabot (L2) Solution 10] (Eterna round: R97, puzzle: Exclusion 5) , give the reported apparent KD of MS2 coat protein.
result: 1760

query: For the sequence shown here, CCCGGAUCAACUCCCGGGAACAACAUGAGGAUCACCCAUGUCUAGGAUAUCCACCAGUCAAUAAAGGAGAAGGAGACGGUGGUU [Raesessoqu] (Eterna round: R96, puzzle: Exclusion NG 3) , give the reported apparent KD of MS2 coat protein.
result: 30.5

====

# Test system: MS2 coat protein
# method_notes: apparent KD of MS2 coat protein; designed switch direction (-1 OFF switch, 1 ON switch): -1; higher = weaker reporter binding
# condition_parameters: input ligand: none
Would you mind sorting the entries by apparent KD of MS2 coat protein according to these classes? bin 0 = under 20 nM, bin 1 = from 20 nM up to 40 nM, bin 2 = 40 nM and over

>>> class("AGCUGUGGCCGAGGAUAUCCACAUGAGGAUCACCCAUGUUGAUACGCCGUUAAAGGCGAUAUAAGGGAGAAGGCGGUCUCAGCA [Eli eng2 - 051] (Eterna round: R96, puzzle: Exclusion NG 2)")
"bin 0"
>>> class("UCAGGCUAUUAAACCGCCGACAUGAGGAUCACCCAUGUACUUCAUGCGCUAGCUUGCUCGUCUACCUCAAGGAUCCG [Eternabot (L2) Solution 24] (Eterna round: R97, puzzle: Sensor, turn-off variant 1)")
"bin 2"
>>> class("GGUGAAGCAGGAUAUGUAUCGAUAUACAUGAGGAUCACCCAUGUCAUGUACAAAUUGCAUAUAGAAGGGCUUCACC [Exclusion 5 (FMN-MS2 slide v.4)] (Eterna round: R97, puzzle: Exclusion 5)")
"bin 2"
>>> class("GCAAGCAGCUUGGAAUGAGACAUGAGGAUCACCCAUGUUCAGCACAAAGCCUUCAAUCAUCAGCUCGAAAGUAAAUG [Eternabot (L2) Solution 16] (Eterna round: R97, puzzle: Sensor, turn-off variant 1)")
"bin 0"
>>> class("UUCUUUAUACGAGGAUAUCAUACAUGAGGAUCACCCAUGUAACUGGGUCUAUUUUUAUAUAAUAUUGAGAAGGCGUUUUGCUAU [JR_ExcNG2_Sub071] (Eterna round: R96, puzzle: Exclusion NG 2)")
"bin 1"
>>> class("AGCUGUGGCCGAGGAUAUAUACAUGAGGAUCACCCAUGUAGGUGCGGAUACUCGCACCAAUAAGUGUAGAAGGCGGUCUCAGCA [Eli eng2 - 058] (Eterna round: R96, puzzle: Exclusion NG 2)")
"bin 0"
>>> class("GCGGAUUAUGUAGGAUAUCGGUCAGUUUCUGAUCGAGAAGGACAUGAGGAUCACCCAUGUAAAUUGCCCGCUUUGUGGGUCCGC [JL ENG1 3.62] (Eterna round: R96, puzzle: Exclusion NG 1)")
"bin 0"
>>> class("AAGAAACAUGAGGAUCACCCAUGUGAGGAUAUGAGCACGACCGUGAGGUCGAUAAGAAUCAGAAGGCACAUUAA [JL-ex1-4.55] (Eterna round: R97, puzzle: Exclusion 1)")
"bin 2"

Next item in the queue.
query: Band for the recorded apparent KD of MS2 coat protein of GUAAUUCGAGGAUAUGCCCAUCUAAACAUGAGGAUCACCCAUGUGCGCAUGUUUACCAUCGCAGAAGGCGAGCUGC [Eternabot (L1) Solution 31] (Eterna round: R97, puzzle: Exclusion 5) ?
result: bin 1

Hello, the source for this data is the supplement of paper PMC9170038, in case you need it.
